experimental.protocol: MTT cytotoxicity assay
Assay type: cell-based, human
measurement.conditions: human, HEK293T cells, OD450, cytotoxicity (Fig 2a), replicates
Residues, ends and D or L forms follow the SMILES beside them.
The following compounds are shown together with reported viability at 72 h, 12.5 µM values.
readout.label: viability at 72 h, 12.5 µM

>>> observed_result("CC[C@H](C)[C@H](NC(=O)[C@H](CCCNC(=N)N)NC(=O)[C@H](CCCNC(=N)N)NC(=O)[C@H](CC(C)C)NC(=O)[C@H](Cc1ccccc1)NC(=O)[C@H](Cc1ccccc1)NC(=O)[C@H](Cc1ccccc1)NC(=O)[C@@H](N)Cc1ccccc1)C(=O)N[C@@H](Cc1ccccc1)C(=O)N[C@@H](CCCNC(=N)N)C(=O)N[C@@H](CCCNC(=N)N)C(N)=O [F-SHf(R^5)-RR] (H-FFFFLRRIFRR-NH2; N-terminus assumed)")
"2.72%"
>>> observed_result("CC[C@H](C)[C@H](NC(=O)[C@H](CCCNC(=N)N)NC(=O)[C@H](CCCNC(=N)N)NC(=O)[C@H](CC(C)C)NC(=O)[C@H](Cc1ccccc1)NC(=O)[C@H](Cc1ccccc1)NC(=O)[C@H](Cc1ccccc1)NC(=O)[C@@H](N)Cc1ccccc1)C(=O)N[C@@H](Cc1ccccc1)C(=O)N[C@@H](CCCNC(=N)N)C(N)=O [F-SHf(R^5)-R] (H-FFFFLRRIFR-NH2; N-terminus assumed)")
"3.13%"
>>> observed_result("CC[C@H](C)[C@H](NC(=O)[C@H](CCCNC(=N)N)NC(=O)[C@H](CCCNC(=N)N)NC(=O)[C@H](CC(C)C)NC(=O)[C@H](Cc1ccccc1)NC(=O)[C@H](CCCNC(=N)N)NC(=O)[C@@H](N)CCCNC(=N)N)C(=O)N[C@@H](Cc1ccccc1)C(=O)N[C@@H](Cc1ccccc1)C(=O)N[C@@H](Cc1ccccc1)C(=O)N[C@@H](Cc1ccccc1)C(N)=O [HT3] (H-RRFLRRIFFFF-NH2; N-terminus assumed)")
"99.5%"
